System: Escherichia coli
Experiment: In vitro antibacterial activity was tested for Escherichia coli Vogel
Assay type: functional
Label Criterion met when MIC is strictly below 0.05 µg/mL; at or above that, label Criterion not met.

# molecule, tested-on, assigned-label
measured = [
    ("COc1c(N2CCC(C)(CN)C2)c(F)cc2c(=O)c(C(=O)O)cn(C3CC3)c12 (stereo not given)", "Escherichia coli", "Criterion not met"),
    ("COc1c(N2CCCC(N)C2)c(F)c(N)c2c(=O)c(C(=O)O)cn(C3CC3)c12 (stereo not given)", "Escherichia coli", "Criterion not met"),
    ("COc1c(N2CCN(C)CC2)c(F)cc2c(=O)c(C(=O)O)cn(C3CC3)c12", "Escherichia coli", "Criterion not met"),
    ("NC1CCN(c2cc3c(cc2F)c(=O)c(C(=O)O)cn3C2CC2)C1 (stereo not given)", "Escherichia coli", "Criterion met"),
    ("COc1c(N2CCC(CN)CC2)c(F)cc2c(=O)c(C(=O)O)cn(C3CC3)c12", "Escherichia coli", "Criterion not met"),
    ("CCOc1c(N2CCC(C)(CN)C2)c(F)c(N)c2c(=O)c(C(=O)O)cn(C3CC3)c12 (stereo not given)", "Escherichia coli", "Criterion not met"),
    ("COc1c(N2CC[C@@H](N)C2)c(F)cc2c(=O)c(C(=O)O)cn(C3CC3)c12", "Escherichia coli", "Criterion met"),
    ("COc1c(N2CCC(N)C2)c(F)c(N)c2c(=O)c(C(=O)O)cn(C3CC3)c12 (stereo not given)", "Escherichia coli", "Criterion met"),
    ("CCOc1c(N2CCCC(CN)C2)c(F)cc2c(=O)c(C(=O)O)cn(C3CC3)c12 (stereo not given)", "Escherichia coli", "Criterion not met"),
    ("NC1CCN(c2c(F)cc3c(=O)c(C(=O)O)cn(C4CC4)c3c2F)C1 (stereo not given)", "Escherichia coli", "Criterion met"),
    ("COc1c(N2CC(C)NC(C)C2)c(F)cc2c(=O)c(C(=O)O)cn(C3CC3)c12 (stereo not given)", "Escherichia coli", "Criterion not met"),
    ("COc1c(N2CCC(C)(CN)C2)c(F)c(N)c2c(=O)c(C(=O)O)cn(C3CC3)c12 (stereo not given)", "Escherichia coli", "Criterion not met"),
    ("COc1c(N2CCC(N)C2)c(F)cc2c(=O)c(C(=O)O)cn(C3CC3)c12 (stereo not given)", "Escherichia coli", "Criterion met"),
    ("COc1c(N2CCCC(N)C2)c(F)cc2c(=O)c(C(=O)O)cn(C3CC3)c12 (stereo not given)", "Escherichia coli", "Criterion not met"),
    ("NCC1CCCN(c2nc3c(cc2F)c(=O)c(C(=O)O)cn3C2CC2)C1 (stereo not given)", "Escherichia coli", "Criterion not met"),
    ("CCOc1c(N2CCC(C)(CN)C2)c(F)cc2c(=O)c(C(=O)O)cn(C3CC3)c12 (stereo not given)", "Escherichia coli", "Criterion not met"),
    ("CCNCC1CCN(c2c(F)cc3c(=O)c(C(=O)O)cn(C4CC4)c3c2OC)C1 (stereo not given)", "Escherichia coli", "Criterion not met"),
    ("NC1CCN(c2c(F)cc3c(=O)c(C(=O)O)cn(C4CC4)c3c2Cl)C1 (stereo not given)", "Escherichia coli", "Criterion met"),
]
